runDescription: Clearance (comments of Table V)
Format: in vitro ADME
Classes (Clearance): low range (below 4 µL/min), mid range (4 µL/min to below 20 µL/min), high range (20 µL/min or more)

Which Clearance band matches CCC(C)(C)C(=O)C(=O)N1CCCC[C@H]1C(=O)CCCCc1cccnc1 [J] ?
low range

Sort into band: CCC(C)(C)C(=O)C(=O)N1CCC[C@H]1C(=O)O [L]
mid range

State the class of the compound shown: O=C(SCCCc1ccccc1)[C@@H]1CCCN1S(=O)(=O)Cc1ccccc1 [C]
high range

Which bin should I file CCC(C)(C)C(=O)C(=O)N1CCC[C@H]1C(=O)SCCC(c1ccccc1)c1ccccc1 [M] under?
mid range

Hello team, could you let me know which band the following compound falls into: CCC(C)(C)C(=O)CN1CCCCC1C(=O)OC(CCc1ccccc1)CCc1ccccc1 (stereo not drawn) [E]
high range

Field: class (Clearance) — entry: O=C(OCCCc1cccnc1)[C@@H]1CCCN1C(=S)NC1CCCCC1 [I]
mid range

Hi there! Could you help me figure out the category for CCC(C)(C)C(=O)C(=O)N1CCCC[C@H]1C(=O)SCCC(c1ccccc1)c1ccccc1 [K] please?
mid range

Hi there! Could you help me figure out the category for CCC(C)(C)C(=O)C(=O)N1CCC[C@H]1C(=O)OCCCc1cccnc1 [GPI 1046] please?
low range

Just checking, what class would you give CN(C)C(=O)N1CCC[C@H]1C(=O)SCCCc1ccccc1 [N] here?
high range
